All figures here come from paper PMC3968014.

target_of_assay: Dyrk2 (Homo sapiens, UniProt Q92630)
Construct: made in house; host or cells: Escherichia coli BL21(DE3) with pRARE; plasmid pGEX-2TK-Dyrk2 (gift from W. Becker, Aachen)
Sequence (Q92630 whole entry): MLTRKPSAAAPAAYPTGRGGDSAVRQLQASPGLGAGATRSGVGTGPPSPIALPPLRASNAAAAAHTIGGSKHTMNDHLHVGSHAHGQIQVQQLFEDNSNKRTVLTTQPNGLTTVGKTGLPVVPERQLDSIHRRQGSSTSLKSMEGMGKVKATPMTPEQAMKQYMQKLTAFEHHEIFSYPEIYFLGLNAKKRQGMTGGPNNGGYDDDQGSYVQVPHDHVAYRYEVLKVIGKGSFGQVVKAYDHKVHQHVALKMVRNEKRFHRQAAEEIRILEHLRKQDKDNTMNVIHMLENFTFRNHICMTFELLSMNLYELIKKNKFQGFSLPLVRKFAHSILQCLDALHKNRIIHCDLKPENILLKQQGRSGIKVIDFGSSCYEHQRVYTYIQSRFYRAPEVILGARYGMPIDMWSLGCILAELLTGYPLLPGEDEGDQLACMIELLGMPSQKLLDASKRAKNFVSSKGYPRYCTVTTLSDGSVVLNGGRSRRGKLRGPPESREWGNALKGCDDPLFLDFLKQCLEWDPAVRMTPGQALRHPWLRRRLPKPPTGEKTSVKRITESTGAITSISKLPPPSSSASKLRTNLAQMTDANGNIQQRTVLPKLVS
assay_text: Dyrk2 kinase assay (32P-ATP, Woodtide)
Type: biochemical
condition_details: 100 µM ATP; read-out: IC50 Dyrk2
measure_name: IC50 (nM)
Answers are plain numbers, in nM.

Give one value of IC50 per listed compound.
1. CC(=O)c1cncc(-c2csc(-c3cccnc3)c2)c1 [Compound 17]
2. c1cncc(-c2cc(-c3cnc4ccccc4c3)cs2)c1 [Compound 20]
3. c1cncc(-c2cc(-c3cscn3)cs2)c1 [Compound 28]
4. Cc1cncc(-c2csc(-c3cncnc3)c2)c1 [Compound 43]

Return:
1. 900
2. 1800
3. 6700
4. 3800

---

target_of_assay: EGFR (Homo sapiens, UniProt P00533)
Construct: purchased Life Technologies (Invitrogen SelectScreen); Dyrk1A, Dyrk2 and CK2α in-house or gifts
Sequence (P00533 25-1210): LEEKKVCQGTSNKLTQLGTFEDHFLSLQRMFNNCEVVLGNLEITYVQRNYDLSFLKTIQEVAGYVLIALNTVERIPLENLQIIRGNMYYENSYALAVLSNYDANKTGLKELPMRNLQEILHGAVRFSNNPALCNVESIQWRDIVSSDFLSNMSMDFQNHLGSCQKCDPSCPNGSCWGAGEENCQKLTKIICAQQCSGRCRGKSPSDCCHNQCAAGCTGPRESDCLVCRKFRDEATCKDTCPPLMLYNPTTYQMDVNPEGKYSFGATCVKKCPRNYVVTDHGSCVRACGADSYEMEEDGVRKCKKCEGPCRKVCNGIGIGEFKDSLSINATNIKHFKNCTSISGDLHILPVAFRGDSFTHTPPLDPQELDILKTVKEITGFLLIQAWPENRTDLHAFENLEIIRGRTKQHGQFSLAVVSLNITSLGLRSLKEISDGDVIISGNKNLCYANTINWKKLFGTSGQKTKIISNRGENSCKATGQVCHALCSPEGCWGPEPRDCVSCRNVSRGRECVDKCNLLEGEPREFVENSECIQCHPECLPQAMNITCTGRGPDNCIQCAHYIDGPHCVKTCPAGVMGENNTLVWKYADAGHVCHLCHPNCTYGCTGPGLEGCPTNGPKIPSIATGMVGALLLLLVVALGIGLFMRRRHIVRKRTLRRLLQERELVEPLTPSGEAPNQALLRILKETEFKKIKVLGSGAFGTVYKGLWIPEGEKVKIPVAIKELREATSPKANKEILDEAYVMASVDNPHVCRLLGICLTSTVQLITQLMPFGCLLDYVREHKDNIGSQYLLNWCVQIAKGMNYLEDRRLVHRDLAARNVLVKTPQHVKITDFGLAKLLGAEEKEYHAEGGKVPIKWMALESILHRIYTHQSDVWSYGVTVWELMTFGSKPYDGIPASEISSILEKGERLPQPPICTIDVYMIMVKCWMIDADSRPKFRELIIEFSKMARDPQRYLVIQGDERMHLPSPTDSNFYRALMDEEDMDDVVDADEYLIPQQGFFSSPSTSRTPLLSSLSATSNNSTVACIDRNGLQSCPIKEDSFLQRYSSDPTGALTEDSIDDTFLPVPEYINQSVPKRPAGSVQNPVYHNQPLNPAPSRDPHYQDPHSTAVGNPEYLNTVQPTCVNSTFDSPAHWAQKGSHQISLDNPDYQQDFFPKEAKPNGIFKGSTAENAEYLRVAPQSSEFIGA
assay_text: Selectivity panel EGFR
Assay type: biochemical
condition_details: 5 µM inhibitor
measure_name: inhibition at 5 µM
Field: value (include unit after the number)

Give one value of inhibition at 5 µM per listed compound.
1. c1cncc(-c2csc(-c3cncnc3)c2)c1 [Compound 41]
2. c1cncc(-c2csc(-c3cnco3)c2)c1 [Compound 33]
3. c1cncc(-c2cc(-c3cncs3)cs2)c1 [Compound 29]
4. c1cncc(-c2csc(-c3cncs3)c2)c1 [Compound 48]
5. Cn1cc(-c2csc(-c3cccnc3)c2)cn1 [Compound 30]

Return:
["4%", "0%", "0%", "15%", "5%"]

---

target_of_assay: Dyrk2 (Homo sapiens)
Construct: made in house; host or cells: Escherichia coli BL21(DE3) with pRARE; plasmid pGEX-2TK-Dyrk2 (gift from W. Becker, Aachen)
assay_text: Dyrk2 kinase assay (32P-ATP, Woodtide)
Assay type: biochemical
condition_details: 100 µM ATP; read-out: IC50 Dyrk2
Please provide measured IC50 for the entries that follow.
Give bare numbers, in nM.

>  <chemical_string>
Clc1cncc(-c2csc(-c3cccnc3)c2)c1

>  <value_units>
nM

>  <IC50>
700

$$$$
>  <chemical_string>
COc1cncc(-c2csc(-c3cccnc3)c2)c1

>  <value_units>
nM

>  <IC50>
200

$$$$
>  <chemical_string>
Fc1cncc(-c2csc(-c3cccnc3)c2)c1

>  <value_units>
nM

>  <IC50>
400

$$$$
>  <chemical_string>
c1cncc(-c2cc(-c3cnc4ccccn34)cs2)c1

>  <value_units>
nM

>  <IC50>
400

$$$$

`c1cncc(-c2cc(-c3cncc4ccccc34)cs2)c1` has a reported IC50 of 2900

---

target_of_assay: Dyrk1A (Homo sapiens)
Construct: encoding the catalytic domain of human Dyrk1A; thrombin cleavage site (N)
assay_text: Dyrk1A kinase assay (32P-ATP, Woodtide)
condition_details: calculated with Cheng-Prussoff equation, KM ATP 64 µM
measure_name: pKd
Give bare numbers, as −log10 of the molar value.

c1cncc(-c2csc(-c3cncs3)c2)c1 [Compound 48] has a reported pKd of 7.41

---

target_of_assay: PIM1 (Homo sapiens)
Sequence (P11309 whole entry): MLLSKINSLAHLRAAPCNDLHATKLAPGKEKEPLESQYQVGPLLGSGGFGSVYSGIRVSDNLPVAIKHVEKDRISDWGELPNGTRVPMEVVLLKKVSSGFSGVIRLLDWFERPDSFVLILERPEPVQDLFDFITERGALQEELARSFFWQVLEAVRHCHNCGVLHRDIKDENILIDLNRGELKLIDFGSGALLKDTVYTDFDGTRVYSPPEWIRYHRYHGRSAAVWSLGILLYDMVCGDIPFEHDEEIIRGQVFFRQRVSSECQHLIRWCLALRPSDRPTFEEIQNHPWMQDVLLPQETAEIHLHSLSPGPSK
assay_text: Selectivity panel PIM1
Type: biochemical
condition_details: 5 µM inhibitor
measure_name: inhibition at 5 µM (%)
One number for each entry, in %.

>  <compound>
c1cncc(-c2csc(-c3cnco3)c2)c1 [Compound 33]

>  <value_units>
%

>  <inhibition at 5 µM>
51

$$$$
>  <compound>
Cn1cc(-c2csc(-c3cccnc3)c2)cn1 [Compound 30]

>  <value_units>
%

>  <inhibition at 5 µM>
52

$$$$
>  <compound>
c1cncc(-c2csc(-c3cncnc3)c2)c1 [Compound 41]

>  <value_units>
%

>  <inhibition at 5 µM>
14

$$$$

Give one value of inhibition at 5 µM per listed compound.
1. c1cncc(-c2csc(-c3cncs3)c2)c1 [Compound 48]
2. c1cncc(-c2cc(-c3cncs3)cs2)c1 [Compound 29]

Return:
[51, 22]
